Where do the numbers come from? From patent US7223781B2.

IC50 for assorted molecules
# testedTarget: COX-1 (Sus scrofa, UniProt A0A287ANF9)
# Construct: A platelet suspension obtained from pig's blood is preincubated with the test substance; endogenous in cells; host or cells: platelets from pig's blood
# Sequence (A0A287ANF9 25-600): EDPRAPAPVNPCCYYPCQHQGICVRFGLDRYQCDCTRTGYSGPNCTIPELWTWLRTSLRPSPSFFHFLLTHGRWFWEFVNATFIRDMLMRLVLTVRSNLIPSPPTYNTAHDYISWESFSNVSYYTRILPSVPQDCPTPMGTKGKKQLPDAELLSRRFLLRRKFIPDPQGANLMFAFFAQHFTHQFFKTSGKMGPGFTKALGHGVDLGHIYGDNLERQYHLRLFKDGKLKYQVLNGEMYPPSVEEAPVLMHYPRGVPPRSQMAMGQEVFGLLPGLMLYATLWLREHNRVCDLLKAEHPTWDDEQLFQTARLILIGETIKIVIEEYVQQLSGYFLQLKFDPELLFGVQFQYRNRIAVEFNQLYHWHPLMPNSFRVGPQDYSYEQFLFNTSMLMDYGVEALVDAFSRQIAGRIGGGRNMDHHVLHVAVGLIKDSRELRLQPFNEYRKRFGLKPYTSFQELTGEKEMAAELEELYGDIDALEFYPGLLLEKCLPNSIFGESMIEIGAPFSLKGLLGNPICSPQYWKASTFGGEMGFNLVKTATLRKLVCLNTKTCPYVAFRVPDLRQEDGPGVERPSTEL
# experimentNotes: In-vitro test for COX-1 inhibition: fluorimetric quantification of malonaldehyde (MDA) in A23187-activated pig platelet suspension
# Assay type: cell-based
# testConditions: Table 7, arylamides; pig platelets; read-out: MDA pIC50 (converted)
Give the value in nM but do not write nM after it.

Q: Recorded IC50 of COc1ccc(-c2nc(SCCNC(=O)c3ccc(F)cc3)[nH]c2-c2ccc(OC)cc2)cc1 [Compound T38] , please.
A: 251

Q: Request: COc1ccc(-c2nc(SCCNC(=O)c3ccc(C(F)(F)F)cc3)[nH]c2-c2ccc(OC)cc2)cc1 [Compound T42]
A: 324

Q: // same read-out, input: COc1ccc(-c2nc(SCCNC(=O)c3cccc(C(F)(F)F)c3)[nH]c2-c2ccc(OC)cc2)cc1 [Compound T43]
A: 100

Q: Now give it for COc1ccc(-c2nc(SCCNC(=O)c3ccc(Cl)cc3Cl)[nH]c2-c2ccc(OC)cc2)cc1 [Compound T35] too.
A: 151
